- system tested: T1, cynomolgus CD40 extracellular domain (ECD) (cynomolgus)
- T1 construct: extracellular domain; also called Cynomolgus CD40 ECD
- experiment summary: SPR (IBIS MX96), antibody captured, monovalent CD40 ECD in solution
endpoint name: Kd (nM)
// return numeric value only (unit: nM, not printed)

# Kd of antibody 16040 (antibody, human IgG1, kappa, L234A L235A, V domains shown, Fully human IgG1-LALA / kappa) VH: QVQLVESGGGVVQPGRSLRLSCAASGFTFSIYGMHWVRQAPGKGLEWVAVISYDGSNKYYADSVKGRFTISRDNSKNTLYLQMNSLRAEDTAVYYCAAGNWFDPWGQGTLVTVSS VL: DIQLTQSPSFLSASVGDRVTITCRASQGISSYLAWYQQKPGKAPKLLIYAASTLQSGVPSRFSGSGSGTEFTLTISSLQPEDFATYYCQQLNRYPLTFGGGTKVEIKR = 16

The measured Kd associated with antibody 16154 (antibody, human IgG1, kappa, L234A L235A, V domains shown, Fully human IgG1-LALA / kappa) VH: EVQLVESGGGLVQPGGSLRLSCAASGFTFTSYWMSWVRQAPGKGLEWVANIKQDGSEKYYVDSVKGRFTISRDNAKNSLYLQMNSLRAEDTAVYYCARGPVAGPYWYFDLWGRGTLVTVSS VL: AIQMTQSPSSLSASVGDRVTITCRASQGIRNDLGWYQQKPGKAPKLLIYAASSLQSGVPSRFSGSGSGTDFTLTISSLQPEDFATYYCLQDYHYPLTFGGGTKVEIKR reads 4.6

The binder identified as antibody 15833 (antibody, human IgG1, kappa, L234A L235A, V domains shown, Fully human IgG1-LALA / kappa) VH: QVQLVESGGGVVQPGRSLRLSCAASGFTFSNYAMHWVRQAPGKGLEWVALISFDGSYKYYADSVKGRFTISRDNSKNTLYLQMNSLRAEDTAVYYCVKDAGYSSSWFFDYWGQGTLVTVSS VL: DIQMTQSPSSVSASVGDRVTITCRASQDISSWLAWYQQKPGKAPKLLIYAASSLQSGVPSRFSGSGSGTDFTLTISSLQPEDFGNYYCQQANSFPWTFGQGTKVEIKR registered its Kd at 1.5

Lab note: measured Kd of antibody 15948 (antibody, human IgG1, kappa, L234A L235A, V domains shown, Fully human IgG1-LALA / kappa) VH: QVQLVESGGGVVQPGRSLRLSCAASGFTFSIYGMHWVRQAPGKGLEWVAVISYDGSNKYYADSVKGRFTISRDNSKNTLYLQMNSLRAEDTAVYYCAKDPDYYGSGSYYPDWGQGTLVTVSS VL: DIQLTQSPSFLSASVGDRVTITCRASQGISSYLAWYQQKPGKAPKLLIYAASTLQSGVPSRFSGSGSGTEFTLTISSLQPEDFATYYCQQVKSYPLTFGGGTKVEIKR was 57

Data origin: patent US20210214454A1
